Assay target: T1, human SIRPβ1v2, extracellular domain, Avi-FXa-Fc tag (human, biotinylated)
T1 construct: also called huSIRPβ1v2
T1 sequence (chain, as listed by the source limits assumed): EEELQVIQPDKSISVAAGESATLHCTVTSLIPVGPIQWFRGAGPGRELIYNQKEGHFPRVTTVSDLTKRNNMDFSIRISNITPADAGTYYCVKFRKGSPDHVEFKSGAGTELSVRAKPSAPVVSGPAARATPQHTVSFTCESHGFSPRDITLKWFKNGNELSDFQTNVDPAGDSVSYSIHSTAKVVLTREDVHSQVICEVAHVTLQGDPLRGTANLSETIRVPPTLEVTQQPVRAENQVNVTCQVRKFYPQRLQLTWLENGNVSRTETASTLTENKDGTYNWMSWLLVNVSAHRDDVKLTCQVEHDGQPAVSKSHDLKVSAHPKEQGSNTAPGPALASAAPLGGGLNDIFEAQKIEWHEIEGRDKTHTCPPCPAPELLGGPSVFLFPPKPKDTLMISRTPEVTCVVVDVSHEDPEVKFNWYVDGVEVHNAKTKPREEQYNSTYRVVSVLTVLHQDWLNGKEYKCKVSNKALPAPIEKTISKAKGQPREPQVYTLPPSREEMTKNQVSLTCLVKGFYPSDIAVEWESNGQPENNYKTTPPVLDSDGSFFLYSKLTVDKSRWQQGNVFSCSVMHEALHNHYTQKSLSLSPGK
Assay notes: SPR, captured biotinylated antigen
Protocol: Surface Plasmon Resonance (SPR) assay: Affinity analysis was performed by single cycle kinetics analysis on a Surface Plasmon Resonance apparatus (BiaCore™ T200 system, GE Life Sciences) at 25° C. […] The kinetic parameters (association rate [kₐ], dissociation rate [kd] and binding constant, also referred to as equilibrium dissociation constant or binding affinity [KD]) were calculated using BiaCore™ T200 evaluation software (v3.1).
pKd: −log10 of the molar value.

{"Binder": "humanized anti-SIRPα antibody 6 (antibody, human IgG1, kappa, L234A L235A, V domains shown, human IgG1 LALA, kappa; also called mAb 6) VH: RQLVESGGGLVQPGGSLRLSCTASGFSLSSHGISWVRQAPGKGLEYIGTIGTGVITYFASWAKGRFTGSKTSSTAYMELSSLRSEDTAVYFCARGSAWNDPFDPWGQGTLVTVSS VL: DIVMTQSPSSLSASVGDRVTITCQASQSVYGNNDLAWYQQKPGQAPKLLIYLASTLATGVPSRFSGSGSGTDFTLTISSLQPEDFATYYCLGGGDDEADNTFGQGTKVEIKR", "pKd": 8.70}
{"Binder": "29AM4-5-LALA (IgG1) (antibody, V domains shown, human IgG1 LALA, kappa; also called 29AM4-5huIgG1LALA) VH: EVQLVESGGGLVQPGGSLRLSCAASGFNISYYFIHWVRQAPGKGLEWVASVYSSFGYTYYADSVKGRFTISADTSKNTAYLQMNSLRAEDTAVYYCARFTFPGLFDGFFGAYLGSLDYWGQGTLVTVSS VL: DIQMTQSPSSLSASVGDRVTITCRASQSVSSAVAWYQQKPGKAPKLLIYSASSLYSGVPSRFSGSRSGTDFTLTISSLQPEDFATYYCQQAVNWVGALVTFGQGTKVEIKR", "pKd": 10.07}
{"Binder": "HEFLB (humanized IgG4) (antibody, V domains shown, humanized IgG4 of WO 2017/178653; also called humanized HEFLB) VH: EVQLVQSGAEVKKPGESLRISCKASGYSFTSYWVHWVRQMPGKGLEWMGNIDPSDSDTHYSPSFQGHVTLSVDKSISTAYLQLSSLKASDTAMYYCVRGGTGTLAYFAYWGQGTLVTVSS VL: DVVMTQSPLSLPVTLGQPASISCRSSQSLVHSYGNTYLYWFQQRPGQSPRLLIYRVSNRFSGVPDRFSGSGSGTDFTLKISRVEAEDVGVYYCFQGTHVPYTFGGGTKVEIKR", "pKd": 9.67}
{"Binder": "humanized anti-SIRPα antibody 8 (antibody, human IgG1, kappa, L234A L235A, V domains shown, human IgG1 LALA, kappa; also called mAb 8) VH: RQLVESGGGLVQPGGSLRLSCAASGFSLSSHGISWVRQAPGKGLEYIGTIGTGVITYYASWAKGRFTGSKTSSTAYLQMTSLRAEDTAVYYCARGSAWNDPFDYWGQGTLVTVSS VL: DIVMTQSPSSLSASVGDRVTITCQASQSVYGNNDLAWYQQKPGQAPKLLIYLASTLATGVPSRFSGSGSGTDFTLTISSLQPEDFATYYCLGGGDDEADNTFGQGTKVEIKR", "pKd": 8.74}
